# assay name: compound fluorescence in toxin protease inhibitor counterscreen, primary screen, artefact control for toxin protease inhibitor project, biochemical, multiplex microsphere, HTS (AID 624483)
# test context: compound autofluorescence counterscreen, microsphere flow cytometry
Hit rate of the full screen: of about 360,000 compounds, about 11,000 (3.1%) were called active. Not shown: some 2% with an inconclusive outcome. Rule as the data show it: active = fluorescence intensity above about 16000; inconclusive = no clear call, values can overlap the other calls; inactive = below that. The list comes from a sample in which actives are over-represented; it also holds close analogues and randomly drawn compounds.
Outcomes you can answer with include only these: TRUE = active, FALSE = inactive

Per the records of this test, what outcome belongs to "Cc1onc(-c2ccccc2)c1C(=O)N1CCN(S(=O)(=O)c2ccccc2C(F)(F)F)CC1" ?
FALSE

Per the records of this test, what outcome belongs to "Cc1onc(-c2c(Cl)cccc2Cl)c1C(=O)c1c[nH]c(C(=O)NC2CC2)c1" ?
TRUE

Per the records of this test, what outcome belongs to "COc1ccc(OCCNS(=O)(=O)Cc2ccccc2)cc1" ?
FALSE

Per the records of this test, what outcome belongs to "COC(=O)c1ccc2nc(-c3ccccc3)c(Cc3ccc(OC)cc3C)n2c1" ?
FALSE

Per the records of this test, what outcome belongs to "Cc1nnc(SCC(=O)Nc2ccc(S(=O)(=O)Nc3ccc(Cl)nn3)cc2)s1" ?
FALSE

Per the records of this test, what outcome belongs to "C/C(=N/OC(=O)c1c(-c2c(F)cccc2Cl)noc1C)c1cnccn1" ?
FALSE

Per the records of this test, what outcome belongs to "Cc1ccc2[nH]c(=O)c(CN(CCCN(C)C)C(=O)Nc3cccc(Cl)c3)cc2c1" ?
TRUE

Per the records of this test, what outcome belongs to CCCS(=O)(=O)NC(=O)C1(C)CCCN(C(=O)c2cc(C)on2)C1 (stereo not given) ?
FALSE

Per the records of this test, what outcome belongs to "CCCNC(=O)COc1coc(CN2CCN(Cc3ccccc3)CC2)cc1=O" ?
FALSE

Per the records of this test, what outcome belongs to COCCNC(=O)C1CCCN(Cc2ccccc2Cl)CC1 (stereo not given) ?
FALSE

Per the records of this test, what outcome belongs to Cn1c2c(c(=O)n(C)c1=O)C(c1cccc(F)c1)C(C#N)=C(N)O2 (stereo not given) ?
FALSE

Per the records of this test, what outcome belongs to "CCc1nc2c(OCc3ccc(Cl)cc3Cl)cccn2c1N(C)C(=O)C(C)C" ?
FALSE

Per the records of this test, what outcome belongs to "c1ccc(COc2ccccc2CNCc2cccnc2)cc1" ?
FALSE

Per the records of this test, what outcome belongs to "Nc1nc(SCc2cccc(Br)c2)n[nH]1" ?
FALSE

Per the records of this test, what outcome belongs to CC1=C(C(=O)N(C(C)C)C(C)C)CC(CC(=O)NCCCCc2ccccc2)C(=O)N1CCC1=CCCCC1 (stereo not given) ?
FALSE
